Tested on: Pseudomonas aeruginosa ATCC27853
Assay type: cell-based
condition parameters: Pseudomonas aeruginosa ATCC27853, reference strain
Positions of bridges follow the written chain, without caps; N, C: chain ends. Chains are numbered I, II in the order given. No end group written: not given here.
Entries and their MIC (Molarity) values follow.
test readout: MIC (Molarity)

• I: QKAIRVRLSAKKA-OH / II: QKAIRVRLSAK / III: QKAIRVRLSA / IV: QKAIRVRLSA (amide I:11-IV:C, I:12-II:C, II:11-III:C) [M33, QKAIRVRLSA] = 1.5 µM
• QKKIRARLSA [M36] = >12 µM
• I: QRKIRVRLSAKKA-OH / II: QRKIRVRLSAK / III: QRKIRVRLSA / IV: QRKIRVRLSA (amide I:11-IV:C, I:12-II:C, II:11-III:C) [M28] = 0.76 µM
• QKKIRVRASA [M38] = >12 µM

* * *

Quick reference for MIC (Molarity) among some substances
Tested on: Pseudomonas aeruginosa ATCC27853
Type: cell-based
condition parameters: ATCC27853
From the text: MIC is defined as the lowest concentration, in an antibiotic dilution range, that inhibits visible bacterial growth. The importance of MIC sensitivity test is based on the principle that in vitro sensitivity provides a predictive indication of the in vivo efficacy of the antibiotic therapy. Values are expressed as molar concentration and compared to MIC values obtained with commercially available antibiotics such as amikacin, ceftriaxone and levofloxacin (Table 3). […]
Positions of bridges follow the written chain, without caps; N, C: chain ends. Chains are numbered I, II in the order given. No end group written: not given here.
test readout: MIC (Molarity) (µM)

• I: QKKARVRLSAKKA-OH / II: QKKARVRLSAK / III: QKKARVRLSA / IV: QKKARVRLSA (amide I:11-IV:C, I:12-II:C, II:11-III:C) [M34, QKKARVRLSA] = 12
• I: QKKIRVALSAKKA-OH / II: QKKIRVALSAK / III: QKKIRVALSA / IV: QKKIRVALSA (amide I:11-IV:C, I:12-II:C, II:11-III:C) [M37] = 3
• I: QRRIRVRLSAKKA-OH / II: QRRIRVRLSAK / III: QRRIRVRLSA / IV: QRRIRVRLSA (amide I:11-IV:C, I:12-II:C, II:11-III:C) [M30, QRRIRVRLSA] = 12

* * *

method description: in vitro
Type: cell-based
condition parameters: mouse, SPO murine myeloma cells
Positions of bridges follow the written chain, without caps; N, C: chain ends. Chains are numbered I, II in the order given. No end group written: not given here.
test readout: viability at 1000 µg/mL

- I: QEKIRVRLSAKKA-OH / II: QEKIRVRLSAK / III: QEKIRVRLSA / IV: QEKIRVRLSA (amide I:11-IV:C, I:12-II:C, II:11-III:C) [M1]: 80 to 90%

* * *

method description: Cytotoxicity test by MTT
Format: cell-based, mouse
condition parameters: mouse, J774 A.1 murine macrophage cells
Positions of bridges follow the written chain, without caps; N, C: chain ends. Chains are numbered I, II in the order given. No end group written: not given here.
test readout: viability at 1000 µg/mL

- I: QEKIRVRLSAKKA-OH / II: QEKIRVRLSAK / III: QEKIRVRLSA / IV: QEKIRVRLSA (amide I:11-IV:C, I:12-II:C, II:11-III:C) [M1]: ~50%

* * *

Catalogue of MIC (Molarity) values
System: Pseudomonas aeruginosa ATCC27853
Assay type: cell-based
condition parameters: ATCC27853
Description: MIC is defined as the lowest concentration, in an antibiotic dilution range, that inhibits visible bacterial growth. The importance of MIC sensitivity test is based on the principle that in vitro sensitivity provides a predictive indication of the in vivo efficacy of the antibiotic therapy. Values are expressed as molar concentration and compared to MIC values obtained with commercially available antibiotics such as amikacin, ceftriaxone and levofloxacin (Table 3). […]
Positions of bridges follow the written chain, without caps; N, C: chain ends. Chains are numbered I, II in the order given. No end group written: not given here.
test readout: MIC (Molarity)

- I: QKKIRVRLSAKKA-OH / II: QKKIRVRLSAK / III: QKKIRVRLSA / IV: QKKIRVRLSA (amide I:11-IV:C, I:12-II:C, II:11-III:C) [M6, QKKIRVRLSA]: 0.76 µM
- I: QAKIRVRLSAKKA-OH / II: QAKIRVRLSAK / III: QAKIRVRLSA / IV: QAKIRVRLSA (amide I:11-IV:C, I:12-II:C, II:11-III:C) [M4]: 6.4 µM
- I: AKKIRVRLSAKKA-OH / II: AKKIRVRLSAK / III: AKKIRVRLSA / IV: AKKIRVRLSA (amide I:11-IV:C, I:12-II:C, II:11-III:C) [M31]: 3 µM

* * *

Tested on: Pseudomonas aeruginosa ATCC27853
Format: cell-based
condition parameters: ATCC27853
Positions of bridges follow the written chain, without caps; N, C: chain ends. Chains are numbered I, II in the order given. No end group written: not given here.
Reported MIC (Molarity) is given for each of the following substances.
test readout: MIC (Molarity) (µM)

• I: QKKIRVRLAAKKA-OH / II: QKKIRVRLAAK / III: QKKIRVRLAA / IV: QKKIRVRLAA (amide I:11-IV:C, I:12-II:C, II:11-III:C) [M39, QKKIRVRLAA] = 3
• I: QKKIAVRLSAKKA-OH / II: QKKIAVRLSAK / III: QKKIAVRLSA / IV: QKKIAVRLSA (amide I:11-IV:C, I:12-II:C, II:11-III:C) [M35, QKKIAVRLSA] = 1.5
• I: QKRIRVRLSAKKA-OH / II: QKRIRVRLSAK / III: QKRIRVRLSA / IV: QKRIRVRLSA (amide I:11-IV:C, I:12-II:C, II:11-III:C) [M29, QKRIRVRLSA] = 6
